I'd appreciate it if you could supply z-score values for the items below.
- experimental protocol: plasmodial surface anion channel blockers, osmotic lysis – cell-based, P. falciparum Indochina, OD700, 18 h, primary screen (AID 1157)
- details: P. falciparum Indochina infected erythrocytes, osmotic lysis OD700, 18 h; higher = more signal, called active from +8 up or from −8 down
// response body must contain only the number

Request: I would be grateful if you could share the reported z-score for O=C1OCCC=C[C@H]2OC34C=CCN(c5ccc(Cl)cc5)C(=O)[C@H]3N(CCCO)C(=O)[C@@H]4C12 (some centres not stated) .
Result: -0.652

Request: I would be grateful if you could share the reported z-score for C=C(/C(=C/C[C@H](OC(C)=O)c1ccc(OCCO)cc1)c1cc(C(=O)OC)ccc1OC)C(C)C .
Result: 1.36

Request: I would be grateful if you could share the reported z-score for CO[C@H]1O[C@H](CO)[C@@H](OC(=O)Nc2cccc(F)c2)[C@H](OC(=O)Nc2ccccc2)[C@H]1OC(=O)Nc1ccccc1 .
Result: 0.986

Request: I would be grateful if you could share the reported z-score for O=C1O[C@H](c2ccccc2)[C@H](c2ccccc2)N2[C@H]1[C@@H](C(=O)N1CCN(c3ncccn3)CC1)[C@]1(C(=O)Nc3ccc(C#CC4=CCCCC4)cc31)[C@H]2c1ccccc1OCCO .
Result: 1.03

Request: I would be grateful if you could share the reported z-score for CCOC(=O)C[C@H]1[C@H](OC(=O)c2ccc(-c3ccccc3)cc2)[C@@H](NC(=O)c2ccccc2)c2cc(OCCCO)ccc2N1C(=O)Cc1ccc(OC)cc1 .
Result: 0.41

Request: I would be grateful if you could share the reported z-score for CCOc1cc(C(O)C2C=CC3C(=O)N(c4ccccc4)C(=O)C3N2Nc2ccc(C(C)C)cc2)ccc1O (configuration not stated) .
Result: 1.42

Request: I would be grateful if you could share the reported z-score for CN(C)CCCC[C@@H]1NC(=O)[C@H]2C[C@@H](C(=O)NCCCCCN)[C@@H](c3cccc(OCCO)c3)N2C1=O .
Result: 0.129

Request: I would be grateful if you could share the reported z-score for C=C[C@H](C)[C@@H](OC(=O)Nc1ccc(SC)cc1)c1ccc(O)c2ccccc12 .
Result: 1.31

Request: I would be grateful if you could share the reported z-score for NC(=O)[C@@]1(Cc2ccccc2)N=C(c2ccc(OCCCO)cc2)O[C@H]1c1ccccc1 .
Result: 0.639

Request: I would be grateful if you could share the reported z-score for CC(C)C(=C=CC[C@H](O)c1ccc(CO)o1)CCO .
Result: -0.012

Request: I would be grateful if you could share the reported z-score for CC(C)[Si](C#C[Si](C(C)C)(C(C)C)C(C)C)(O[C@H](C)c1cn(Cc2ccccc2)nn1)C(C)C .
Result: 0.0635

Request: I would be grateful if you could share the reported z-score for COc1cc2c(cc1O)C=[N+](Cc1cc3c(cc1Br)OCO3)CC2 .
Result: 0.154

Request: I would be grateful if you could share the reported z-score for CC=CC(O)C1C=CC2C(=O)N(C)C(=O)C2N1N(c1ccccc1)c1ccccc1 (configuration not stated) .
Result: 1.12

Request: I would be grateful if you could share the reported z-score for O=C1C2C=CC(C(O)C=Cc3ccc([N+](=O)[O-])cc3)N(n3cnnc3)C2C(=O)N1Cc1ccccc1 (configuration not stated) .
Result: 0.83

Request: I would be grateful if you could share the reported z-score for CC(=O)Nc1cc(Br)ccc1C(=O)NCc1ccccc1 .
Result: 0.229

Request: I would be grateful if you could share the reported z-score for CC(C)=CCCC(C)=CC(O)C1C=CC2C(=O)N(c3ccccc3)C(=O)C2N1Nc1ccc(C(C)C)cc1 (configuration not stated) .
Result: 0.729

Request: I would be grateful if you could share the reported z-score for CC(c1ccccc1)C(O)C1C=CC2C(=O)N(C)C(=O)C2N1NC(=O)OC(C)(C)C (configuration not stated) .
Result: 0.508

###

I'd appreciate it if you could supply z-score values for the items below.
- target or test system: Luciferin 4-monooxygenase (Photinus pyralis) (UniProt P08659)
- Sequence (P08659 whole entry, looked up): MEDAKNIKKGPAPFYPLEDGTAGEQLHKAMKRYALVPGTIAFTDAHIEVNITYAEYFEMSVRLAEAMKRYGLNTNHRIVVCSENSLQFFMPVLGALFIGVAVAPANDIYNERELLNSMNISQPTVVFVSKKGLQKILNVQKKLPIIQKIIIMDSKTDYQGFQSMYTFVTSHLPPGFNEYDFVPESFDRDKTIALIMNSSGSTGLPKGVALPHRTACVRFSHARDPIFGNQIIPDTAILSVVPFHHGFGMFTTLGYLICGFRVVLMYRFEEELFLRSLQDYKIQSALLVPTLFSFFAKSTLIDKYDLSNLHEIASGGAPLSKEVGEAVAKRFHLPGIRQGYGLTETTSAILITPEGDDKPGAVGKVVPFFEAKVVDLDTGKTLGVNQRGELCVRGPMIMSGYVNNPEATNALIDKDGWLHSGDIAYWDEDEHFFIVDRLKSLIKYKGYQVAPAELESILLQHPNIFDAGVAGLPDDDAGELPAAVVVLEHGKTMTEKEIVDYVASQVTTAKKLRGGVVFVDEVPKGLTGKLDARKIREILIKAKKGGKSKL
- experimental protocol: inhibition of purified Photinus pyralis luciferase – biochemical, luminescence, purified enzyme, 2006 set, primary screen (AID 1141);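 also: cell-free assay with purified firefly luciferase at 100 ng per well in PBS; test concentration not given here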
- details: purified firefly luciferase, SteadyGlo luminescence, 30 min; higher = more signal, called active from +8 up or from −8 down
// response body must contain only the number

Request: I would be grateful if you could share the reported z-score for CCCC[C@H]1C[C@@H]1[C@@H]1N(P(=O)(c2ccccc2)c2ccccc2)C[C@@](O)(c2ccccc2)CC12CC2 .
Result: 2.35

Request: I would be grateful if you could share the reported z-score for CCCNC(=O)[C@@]1(Sc2ccc(C)cc2)CC(=O)N(Cc2ccccc2C(F)(F)F)[C@@H]1c1ccc(CO)cc1I .
Result: 0.262

Request: I would be grateful if you could share the reported z-score for COC(=O)[C@]1(Cc2ccccc2)N=C(c2ccc(OCCCO)cc2)O[C@@H]1c1ccccc1N=[N+]=[N-] .
Result: -4.8

Request: I would be grateful if you could share the reported z-score for C=CCC(OC(C)=O)[C@@H]1[C@@H](N(Cc2ccc(-c3cccc(C(F)(F)F)c3)o2)C(=O)Cc2ccc(OC)cc2)c2cc(OCCCO)ccc2N1C(=O)c1ccc2ccccc2c1 (some centres not stated) .
Result: 0.535

Request: I would be grateful if you could share the reported z-score for NC(=O)[C@@H]1[C@H]2C(=O)O[C@H](c3ccccc3)[C@H](c3ccccc3)N2[C@H](c2ccc(OCCO)cc2)[C@@]12C(=O)Nc1ccc(C#CC3=CCCCC3)cc12 .
Result: -2.48

Request: I would be grateful if you could share the reported z-score for O=C1[C@H]2C=C(Br)[C@H](C[C@@H]2OCCCCCCO)[C@@]12CO2 .
Result: 0.364

Request: I would be grateful if you could share the reported z-score for O=C1O[C@@H](c2ccccc2)[C@@H](c2ccccc2)N2[C@@H](c3ccccc3OCCO)[C@]3(C(=O)Nc4ccccc43)[C@@H](C(=O)O)[C@H]12 .
Result: -1.55

Request: I would be grateful if you could share the reported z-score for O=C(NCc1ccccc1)[C@@H]1c2ccccc2C(=O)N(C2Cc3ccccc3C2)[C@H]1c1ccc(CO)cc1 .
Result: 0.111

Request: I would be grateful if you could share the reported z-score for C#CCN1[C@H](/C=C/C2CC2)[C@H](Cc2ccccc2)OC(=O)[C@@H]1Cc1ccccc1 .
Result: -0.373

Request: I would be grateful if you could share the reported z-score for C=C(CCCC)/C(=C/C[C@H](OC(C)=O)c1ccc(OCCO)cc1)c1cnc2ccccc2c1 .
Result: -0.126

Request: I would be grateful if you could share the reported z-score for O=C(CS)NCCCCCNC(=O)[C@@H]1C[C@@H]2C(=O)NCC(=O)N2[C@@H]1c1cccc(OCCO)c1 .
Result: -2.27

Request: I would be grateful if you could share the reported z-score for CC(C)[Si](C#CCCCC#N)(O[C@H](c1ccccc1)c1cn(Cc2cccc(Cl)c2)nn1)C(C)C .
Result: -0.513

Request: I would be grateful if you could share the reported z-score for COC(=O)c1c2oc(c1C(=O)OC)C(=O)NC1(CCCCC1)c1cn(nn1)C[C@H](Cc1ccccc1)NC(=O)N[C@H](CO)CC2 .
Result: 0.893

Request: I would be grateful if you could share the reported z-score for CCCCC(O)C1C=CC2C(=O)N(C)C(=O)C2N1N1CCCCC1 (configuration not stated) .
Result: 0.452

Request: I would be grateful if you could share the reported z-score for CN1C(=O)C2C=CC(C(O)c3ccc(F)cc3)N(N(c3ccccc3)c3ccccc3)C2C1=O (configuration not stated) .
Result: 0.0492

Request: I would be grateful if you could share the reported z-score for CCOC(=O)C1=CC[C@@H](c2ccc(C(F)(F)F)cc2)N(S(=O)(=O)c2ccc(C)cc2)[C@H]1c1ccccc1 .
Result: 0.849

Request: I would be grateful if you could share the reported z-score for N#Cc1ccc(C(O)C2C=CC3C(=O)N(c4ccccc4)C(=O)C3N2Nc2ccccc2F)cc1 (configuration not stated) .
Result: 1.79

Request: I would be grateful if you could share the reported z-score for C=C(C)[C@@H]1CC=C(C(O)C2C=CC3C(=O)NC(=O)C3N2Nc2ccc(Cl)cc2Cl)CC1 (some centres not stated) .
Result: 0.022

Request: I would be grateful if you could share the reported z-score for CS(=O)(=O)CCOC(=O)C1=CC(CCCO)=CC(C2CC2)N(Cc2cc3c(cc2Br)OCO3)C=C1C(=O)OCCS(C)(=O)=O (configuration not stated) .
Result: -0.395

Request: I would be grateful if you could share the reported z-score for [N-]=[N+]=Nc1ccccc1C[C@]1(C(=O)NCC(O)CO)N=C(c2ccc(OCCCO)cc2)O[C@H]1c1ccccc1 (some centres not stated) .
Result: -1.78

Request: I would be grateful if you could share the reported z-score for COc1ccc(NN2C(C(O)c3ccc(N(C)C)cc3)C=CC3C(=O)N(C4CCCCC4)C(=O)C32)cc1 (configuration not stated) .
Result: 0.557

Request: I would be grateful if you could share the reported z-score for CN1CCC(CCCO)=CC1c1cccs1 (configuration not stated) .
Result: 0.0421

Request: I would be grateful if you could share the reported z-score for COCC(=C=CC[C@H](O)c1cccc(OCCO)c1)CCO .
Result: 0.415

Request: I would be grateful if you could share the reported z-score for CCCCN1CC=CC23O[C@@H]4/C=C\CCCOC(=O)C4[C@H]2C(=O)N(CCCO)[C@@H]3C1=O (some centres not stated) .
Result: 0.633

Request: I would be grateful if you could share the reported z-score for C=CCN1C(=O)[C@]2(Cc3ccccc3)N=C(c3ccc(OCCCO)cc3)O[C@@H]2c2ccccc21 .
Result: -6.95

Request: I would be grateful if you could share the reported z-score for CC(C)Cc1ccc(CN2CC[C@@H](N)C2)cc1 .
Result: 0.824

Request: I would be grateful if you could share the reported z-score for COc1ccc(C(=O)Nc2cccc(CN3C(=O)[C@]4(O[C@H](CCn5cc(CCO)nn5)[C@@H]([Si](C)(C)c5ccc(OC)cc5)[C@@H]4C)c4ccccc43)c2)cc1 .
Result: -0.1

Request: I would be grateful if you could share the reported z-score for C=C[C@H](C)[C@@H](OC(=O)Nc1ccc(SC)cc1)c1ccc(O)c2ccccc12 .
Result: -2.61

Request: I would be grateful if you could share the reported z-score for COc1ccc(C(O)C2C=CC3C(=O)N(C)C(=O)C3N2NC(=O)OC(C)(C)C)c2ccccc12 (configuration not stated) .
Result: -0.9

Request: I would be grateful if you could share the reported z-score for C=CCN1C(=O)[C@]2(O[C@H](CCO)[C@@H]([Si](C)(C)c3ccc(OC)cc3)[C@@H]2C)c2cc(N(C=O)c3ccccc3)ccc21 .
Result: -0.914

Request: I would be grateful if you could share the reported z-score for CC(=O)NCCCC[C@@H]1NC(=O)[C@H]2C[C@@H](C(=O)NCCCCCNC(=O)CS)[C@@H](c3ccc(O)cc3)N2C1=O .
Result: -2.56

Request: I would be grateful if you could share the reported z-score for CC(c1ccccc1)C(O)C1C=CC2C(=O)N(C)C(=O)C2N1NC(=O)OC(C)(C)C (configuration not stated) .
Result: -0.934
